# TGT: H3 receptors of the brain of the rat (Rattus norvegicus)
# Construct: This method requires rat cerebral cortex sections; from tissue; host or cells: rat cerebral cortex sections
# Sequence (Q9QYN8 whole entry): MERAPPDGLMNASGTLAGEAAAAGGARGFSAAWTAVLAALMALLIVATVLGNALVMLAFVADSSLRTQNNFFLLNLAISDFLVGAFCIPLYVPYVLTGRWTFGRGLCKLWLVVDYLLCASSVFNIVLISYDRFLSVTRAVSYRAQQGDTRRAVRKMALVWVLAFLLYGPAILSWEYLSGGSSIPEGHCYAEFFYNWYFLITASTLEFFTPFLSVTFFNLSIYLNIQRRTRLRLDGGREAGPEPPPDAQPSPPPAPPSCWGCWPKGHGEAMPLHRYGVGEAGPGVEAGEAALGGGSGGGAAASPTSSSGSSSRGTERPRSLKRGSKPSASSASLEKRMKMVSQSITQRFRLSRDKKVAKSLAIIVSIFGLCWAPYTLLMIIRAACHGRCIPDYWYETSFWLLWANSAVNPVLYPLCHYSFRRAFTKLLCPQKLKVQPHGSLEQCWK
# ASSAY_PROTOCOL: Antagonism of the inhibition by exogenous histamine of release in rat cerebral cortex sections (central H3 receptors)
# Assay type: cell-based
# RECORDED_CONDITIONS: read-out: Apparent dissociation constant (Ki) as antagonist of histamine on the H3 receptors of the brain of the rat; rat cerebral cortex sections; exogenous histamine 1 μM; Ki calculated from IC50 according to Cheng and Prusoff
RECORDED_ENDPOINT: Ki (nM)
Quick note: give the figure in nM, leave out the unit.

Reference set, count: 6
O=C(Nc1ccccc1)OCCCc1c[nH]cn1 [Example 61]: 14
c1nc(CCCOCCCC2CCCCC2)c[nH]1 [Example 36]: 20
O=C(NC(=O)c1ccccc1)OCCCc1c[nH]cn1 [Example 55]: 95
O=C(Nc1ccc(F)cc1)OCCCc1c[nH]cn1 [Example 73]: 24
CN(Cc1ccccc1)C(=O)OCCCc1c[nH]cn1 [Example 83]: 42
N#Cc1ccc(OCCCc2c[nH]cn2)cc1 [Example 130]: 12

Prompt: Please indicate Ki recorded for N#Cc1ccc(OCCc2c[nH]cn2)cc1 [Example 112, 4-[2-(4-Cyanophenoxy)ethyl]-1H-imidazole]
Completion: 9

Prompt: Please indicate Ki recorded for O=[N+]([O-])c1ccc(OCCc2c[nH]cn2)cc1 [Example 110, 4-[2-(4-Nitrophenoxy)ethyl]-1H-imidazole]
Completion: 35

Prompt: Please indicate Ki recorded for c1ccc2cc(OCCc3c[nH]cn3)ccc2c1 [Example 125, 4-[2-(2-Naphthyloxy)ethyl]-1H-imidazole]
Completion: 90
